Source listed as patent US20160297889A1.

ADCC cytotoxic activity (51Cr release) on Caki-2 by entry:
Tested system: T1, CAPRIN-1 protein expressed on the membrane surface of human cancer cells (human, UniProt Q14444 2-709)
T1 sequence (looked up): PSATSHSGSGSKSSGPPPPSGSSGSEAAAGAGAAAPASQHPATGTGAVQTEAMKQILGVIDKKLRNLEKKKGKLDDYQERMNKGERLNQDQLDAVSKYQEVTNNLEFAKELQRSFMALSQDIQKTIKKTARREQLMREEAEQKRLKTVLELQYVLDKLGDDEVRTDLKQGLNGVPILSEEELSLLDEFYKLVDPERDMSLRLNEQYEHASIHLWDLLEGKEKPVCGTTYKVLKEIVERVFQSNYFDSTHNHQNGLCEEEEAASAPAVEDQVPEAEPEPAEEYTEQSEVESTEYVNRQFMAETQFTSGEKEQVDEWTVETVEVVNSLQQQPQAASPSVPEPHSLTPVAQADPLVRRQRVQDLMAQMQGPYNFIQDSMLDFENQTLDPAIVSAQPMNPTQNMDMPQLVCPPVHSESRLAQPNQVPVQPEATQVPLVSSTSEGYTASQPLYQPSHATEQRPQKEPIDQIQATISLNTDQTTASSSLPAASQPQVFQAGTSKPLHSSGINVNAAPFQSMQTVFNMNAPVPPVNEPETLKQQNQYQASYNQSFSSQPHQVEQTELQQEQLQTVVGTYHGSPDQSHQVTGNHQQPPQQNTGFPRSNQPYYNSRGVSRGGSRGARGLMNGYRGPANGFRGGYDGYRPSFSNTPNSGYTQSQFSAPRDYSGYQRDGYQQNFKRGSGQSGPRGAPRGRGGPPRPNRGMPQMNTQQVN
Measurement notes: cell-based or functional assay
Attribute measured: ADCC cytotoxic activity (51Cr release) on Caki-2

{"columns": ["Binder", "Result"],
 "data": [
  ["humanized antibody #9 (antibody, V domains shown) VH: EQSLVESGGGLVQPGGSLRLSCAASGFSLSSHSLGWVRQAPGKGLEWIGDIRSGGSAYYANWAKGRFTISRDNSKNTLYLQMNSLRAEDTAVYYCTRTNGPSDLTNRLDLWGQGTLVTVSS VL: DIVLTQSPSSLSASVGDRVTINCQASQSLYNNENLAWFQQKPGKVPKRLIYGASTLASGVSSRFSGSGSGTEFTLTISSLQCEDFAIYYCLGEFSCGSADCFAFGGGTKVEIK", "≥ 26%"],
  ["humanized antibody #2 (antibody, V domains shown) VH: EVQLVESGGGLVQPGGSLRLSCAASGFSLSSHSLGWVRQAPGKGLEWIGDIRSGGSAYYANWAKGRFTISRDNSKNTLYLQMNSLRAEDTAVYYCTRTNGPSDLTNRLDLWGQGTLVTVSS VL: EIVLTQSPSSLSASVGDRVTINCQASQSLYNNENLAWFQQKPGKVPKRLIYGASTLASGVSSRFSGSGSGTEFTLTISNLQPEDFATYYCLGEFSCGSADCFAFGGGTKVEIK", "≥ 33%"]
]}
